Stain index: recorded values
- ASSAY_METHOD_TEXT: Compound is evaluated for stain index
- Assay type: functional
API doc: respond with a numeric literal and nothing else, no unit.

Please review the entries below; each comes with its answer.
| COMPOUND | READOUT_NUMBER |
| --- | --- |
| Br.Br.CCCCCCCCN=c1ccn(CCCCCCCCCCCCn2ccc(=NCCCCCCCC)cc2)cc1 | 10 |
| Br.Br.CCCCCCCCCN=c1ccn(CCCCCCCn2ccc(=NCCCCCCCCC)cc2)cc1 | 1 |
| N=C(NCCCCCCNC(=N)NC(=N)Nc1ccc(Cl)cc1)NC(=N)Nc1ccc(Cl)cc1 | 1 |
| CCCCCCCCN=c1ccn(CCCCCCCCCCn2ccc(=NCCCCCCCC)cc2)cc1.Cl.Cl [OCTENIDINE HYDROCHLORIDE] | 10 |
| Br.Br.CCCCCCCCCN=c1ccn(CCCCCCCCn2ccc(=NCCCCCCCCC)cc2)cc1 | 1 |

## Task Fill in the blank: the reported Stain index of `CCCCCCCCCN=c1ccn(CCCCCCn2ccc(=NCCCCCCCCC)cc2)cc1.Cl.Cl` is ____.
## Result 1

## Task I have this compound here, `Br.Br.CCCCCCCCN=c1ccn(CCCCCCCCCCCCCCn2ccc(=NCCCCCCCC)cc2)cc1` , and I need its recorded Stain index.
## Result 2

## Task Quick one: Stain index for `Br.Br.CCCCCCCCCN=c1ccn(CCCCCCCCCCn2ccc(=NCCCCCCCCC)cc2)cc1` ?
## Result 1

## Task Could you tell me which Stain index is on file for `Br.Br.CCCCCCCCCN=c1ccn(CCCCCCCCCCCCn2ccc(=NCCCCCCCCC)cc2)cc1` ?
## Result 1
